# testSystem: T1, human CD39 protein (recombinant) (human, UniProt P49961 38-478, limits assumed)
# T1 sequence: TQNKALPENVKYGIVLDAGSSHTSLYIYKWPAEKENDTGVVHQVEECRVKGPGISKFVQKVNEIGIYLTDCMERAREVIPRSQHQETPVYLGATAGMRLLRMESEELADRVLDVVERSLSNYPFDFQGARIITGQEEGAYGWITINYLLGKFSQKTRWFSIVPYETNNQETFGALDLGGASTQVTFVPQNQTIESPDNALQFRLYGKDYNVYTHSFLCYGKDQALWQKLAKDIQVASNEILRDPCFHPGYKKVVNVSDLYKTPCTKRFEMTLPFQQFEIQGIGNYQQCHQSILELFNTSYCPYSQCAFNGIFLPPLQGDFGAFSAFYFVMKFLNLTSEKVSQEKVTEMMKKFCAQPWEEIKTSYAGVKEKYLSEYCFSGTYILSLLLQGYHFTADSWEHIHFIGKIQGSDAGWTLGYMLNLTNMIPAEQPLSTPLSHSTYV
# experiment: cell-based or functional assay
observedProperty: ATPase inhibition, inhibition %

INSERT INTO assay_data (binder, observedproperty, valuemeasured) VALUES
  ('HuEM0004-38-13 (antibody, human IgG1, kappa, L234A L235A, V domains shown, humanized mAb638, human IgG1/kappa) VH: EVQLVQSGAEVKKPGASVKVSCKASGYTFTSFWMHWVRQAPGQGLEWMGNINPRNGATKYNEKFRSRVTLTADKSISTAYMELSRLRSDDTAVYYCAREDYDEIYYAMDSWGQGTTVTVSS VL: ENVLTQSPATLSLSPGERATLSCSASSSVIYMYWFQQKPGQSPRVLIYDTSNLASGIPARFSGSGSGTDYTLTISSLEPEDFAVYYCQQWSTYPLTFGQGTKLEIKR', 'ATPase inhibition, inhibition %', '98.7%'),
  ('EM0004-38c (antibody, human IgG1, kappa, L234A L235A, V domains shown, chimeric mAb638; also called EM04-38c) VH: QVQLQQPGTELVKPGASVKLSCKASGYTFTSFWMHWVKQRPGQGLEWIGNINPRNGATKYNEKFRSKVTLTADKTSSTAYMHLSSLTSEDSAVYYCAREDYDEIYYAMDSWGQGTSVTVSS VL: QNVLTQSPAIMSASPGEKVTMTCSASSSVIYMYWFQQKPGSSPRVLIYDTSNLASGVPARFSGSGSGTSYSLTISRMEAEDAATYYCQQWSTYPLTFGAGTKLELKR', 'ATPase inhibition, inhibition %', '107%'),
  ('HuEM0004-38-20 (antibody, human IgG1, kappa, L234A L235A, V domains shown, humanized mAb638, human IgG1/kappa) VH: EVQLVQSGAEVKKPGASVKVSCKASGYTFTSFWMHWVRQAPGQGLEWIGNINPRNGATKYNEKFRSKVTLTADKSISTAYMELSRLRSDDTAVYYCAREDYDEIYYAMDSWGQGTTVTVSS VL: ENVLTQSPATLSLSPGERATLSCSASSSVIYMYWFQQKPGQSPRVLIYDTSNLASGVPARFSGSGSGTDYTLTISSLEPEDFAVYYCQQWSTYPLTFGQGTKLEIKR', 'ATPase inhibition, inhibition %', '100%');
